Hey, just so you know, these numbers are from ChEMBL document CHEMBL2385058.

Molecular target: Microtubule-associated protein tau (Homo sapiens, UniProt P10636)
Sequence (P10636 whole entry): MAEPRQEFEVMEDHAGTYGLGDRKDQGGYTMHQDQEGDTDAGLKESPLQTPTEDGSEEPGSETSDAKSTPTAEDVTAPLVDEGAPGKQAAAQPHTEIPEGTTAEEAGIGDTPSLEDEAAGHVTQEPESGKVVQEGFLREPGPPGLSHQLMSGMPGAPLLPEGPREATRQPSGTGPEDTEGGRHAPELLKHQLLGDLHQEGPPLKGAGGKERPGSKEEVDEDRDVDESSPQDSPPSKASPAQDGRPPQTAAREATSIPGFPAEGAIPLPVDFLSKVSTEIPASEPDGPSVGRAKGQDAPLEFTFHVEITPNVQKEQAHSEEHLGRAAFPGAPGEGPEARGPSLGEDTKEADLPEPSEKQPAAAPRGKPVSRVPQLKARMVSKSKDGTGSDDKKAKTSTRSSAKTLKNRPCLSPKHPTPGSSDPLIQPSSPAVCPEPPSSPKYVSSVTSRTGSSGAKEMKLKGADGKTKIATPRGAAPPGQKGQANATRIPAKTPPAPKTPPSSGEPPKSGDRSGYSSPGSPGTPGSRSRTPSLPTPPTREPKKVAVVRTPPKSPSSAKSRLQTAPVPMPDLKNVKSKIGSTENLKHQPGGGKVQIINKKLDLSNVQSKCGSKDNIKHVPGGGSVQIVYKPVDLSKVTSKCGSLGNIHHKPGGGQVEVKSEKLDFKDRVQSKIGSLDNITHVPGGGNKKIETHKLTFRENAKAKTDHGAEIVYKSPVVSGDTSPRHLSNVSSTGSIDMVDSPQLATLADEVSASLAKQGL
Assay: Inhibition of tau protein aggregation (unknown origin) at 5:1 compound to protein concentration by Western blot analysis
measure: IC50 (nM)
Provide only the numeric value, understood in nM.

[Q] Using known records, supply IC50 for Nc1ccc2nc3ccc(N)cc3[s+]c2c1
[A] 69

[Q] Give the reported IC50 for this compound. Cc1cc2nc3ccc(N(C)C)cc3[s+]c2cc1N [TOLONIUM CHLORIDE]
[A] 69

[Q] Report IC50, nothing else, for this compound: CN(C)c1ccc2nc3ccc(N)cc3[s+]c2c1
[A] 69

###

Target: Microtubule-associated protein tau (Homo sapiens, UniProt P10636)
Assay: Inhibition of tau protein aggregation (unknown origin)
measure: pIC50
pIC50 (log units): -log10 of the concentration in mol/L.

[Q] Return pIC50 for the following compound: C1=C2\Sc3ccccc3N2CCCCC[n+]2c(sc3ccccc32)/C=C/C=C2\Sc3ccccc3N2CCCCC[n+]2c(sc3ccccc32)/C=C/1
[A] 7.10

[Q] Please indicate pIC50 recorded for Cc1ccc(C(=O)N/N=C/c2ccc(O)c(O)c2O)cc1
[A] 6.01

[Q] Find the measured pIC50 of CCC(/C=C1\Sc2ccc(OC)cc2N1CCO)=C\c1sc2ccc(OC)cc2[n+]1CCO and report it.
[A] 6.42

###

Assay: Inhibition of […] human tau K18 aggregation
measure: IC50 (nM)
Kindly answer with a numeric value in nM, unit omitted.

[Q] Give the reported IC50 for this compound. CCC(/C=C1\Sc2ccc(OC)cc2N1CCO)=C\c1sc2ccc(OC)cc2[n+]1CCO
[A] 300

###

Experiment: Binding affinity to tau K19 (unknown origin) assessed as dissociation constant by STD-NMR analysis
Parameters: species or system Homo sapiens
measure: pKd
Please keep in mind that pKd is minus log10 of the molar concentration; only the number is needed.

[Q] State its pKd for this compound: O=C(NNc1nc(-c2ccc([N+](=O)[O-])cc2)cs1)c1ccc2[nH]cnc2c1
[A] 4.21
